- experimental-details: Rat intravenous PK of the EtOH / SEQ ID NO:1 formulation without nanoparticles
- Type: in vivo, Sprague-Dawley rats
- condition-summary: Sprague-Dawley, rat; plasma; rats, intravenous 15 mg/kg; EtOH / 20% SEQ ID NO:1 in saline, without nanoparticles; LCMS
quantity-kind: AUC(0-inf) (ng·h/mL)
// note: answer is a bare numeric in ng·h/mL

## Input For the compound `CO[C@H]1C[C@@H]2CC[C@@H](C)[C@@](O)(O2)C(=O)C(=O)N2CCCC[C@H]2C(=O)O[C@H]([C@H](C)C[C@@H]2CC[C@@H](O)[C@H](OC)C2)CC(=O)[C@H](C)/C=C(\C)[C@@H](O)[C@@H](OC)C(=O)[C@H](C)C[C@H](C)/C=C/C=C/C=C/1C` , what AUC(0-inf) is on record?
## Output 5180
